Test system: U-2932
test_summary: growth inhibition by drug alone (1 - RLU/untreated control) (fraction); higher = stronger inhibition
experimental_parameters: 10 nM; time (day): 3; 177Lu-lilotomab satetraxetan 0 ug/ml
Counter-ions that a name gives are not always drawn.
metric_name: growth inhibition by drug alone
Give bare numbers.

>>> recorded_measurement("C[C@]1(O)C[C@@H](c2nc(-c3ccc4ccc(-c5ccccc5)nc4c3)c3c(N)nccn32)C1")
-0.0175
>>> recorded_measurement("O=C(O)C(Cc1c[nH]c2ccccc12)N1C(=O)c2ccccc2C1=O (configuration not stated)")
0.0147
>>> recorded_measurement("CS(=O)(=O)c1cccc(CNc2nc(Nc3ccc4c(c3)CCC(=O)N4)ncc2C(F)(F)F)c1")
0.0502
>>> recorded_measurement("CC(C)(C#N)c1cc(Cn2cncn2)cc(C(C)(C)C#N)c1")
0.105
>>> recorded_measurement("Nc1nc2[nH]cc(CCc3ccc(C(=O)N[C@@H](CCC(=O)O)C(=O)O)cc3)c2c(=O)[nH]1")
-0.0147

The following molecules each have a reported value; give each one's growth inhibition by drug alone.
1. O=C(Nc1ncc([N+](=O)[O-])s1)c1ccc([N+](=O)[O-])c(Cl)c1
2. CO[C@@H](C(=O)N1Cc2[nH]nc(NC(=O)c3ccc(N4CCN(C)CC4)cc3)c2C1)c1ccccc1
3. CC1(COc2ccc3c(c2)ncn3-c2ccc3cccc(N4CCC(N)CC4)c3n2)COC1
4. Nc1ncn([C@@H]2O[C@H](CO)[C@@H](O)[C@H]2O)c(=O)n1
5. COc1cc2c(NC3CCN(C)CC3)nc(N3CCCN(C)CC3)nc2cc1OCCCN(C)C

stdout:
1. 0.119
2. 0.0385
3. 0.0766
4. -0.0982
5. 0.0324

The following molecules each have a reported value; give each one's growth inhibition by drug alone.
1. Nc1ccn([C@@H]2O[C@H](CO)[C@@H](O)[C@@H]2O)c(=O)n1
2. O=C(NOC[C@H](O)CO)c1ccc(F)c(F)c1Nc1ccc(I)cc1F
3. COc1ccc(-c2ccc3c(N4CCOCC4)nc(N4C[C@@H](C)O[C@@H](C)C4)nc3n2)cc1CO
4. O=C(Nc1ccc(OC(F)(F)F)cc1)c1sccc1NCc1ccnc2ccccc12
5. C[C@]12CCC(=O)C=C1CC[C@@H]1[C@@H]2[C@@H](O)C[C@@]2(C)[C@H]1CC[C@]2(O)C(=O)CO [Hydrocortisone (Cortisol)]
6. O=c1[nH]nc(Sc2ncc([N+](=O)[O-])s2)n1-c1ccc2c(c1)OCCO2

stdout:
-0.00637
0.189
0.119
0.0561
0.112
-0.0286

The following molecules each have a reported value; give each one's growth inhibition by drug alone.
1. Oc1cccc(-c2nc(N3CCOCC3)c3oc4ncccc4c3n2)c1
2. CCC(C)n1ncn(-c2ccc(N3CCN(c4ccc(OCC5COC(Cn6cncn6)(c6ccc(Cl)cc6Cl)O5)cc4)CC3)cc2)c1=O (configuration not stated) [Itraconazole (Sporanox)]
3. CCOc1ccc(Nc2nc(-c3c(C)nc4ccccn34)cs2)cc1
4. O=C(NCCS(=O)(=O)c1ccc(C(F)(F)F)cn1)c1ccc(Cl)cc1
5. O=C(CCc1ccc(O)cc1)c1c(O)cc(O)cc1O [Phloretin (Dihydronaringenin)]
6. C[C@@H](O[C@H]1OCCN(Cc2n[nH]c(=O)[nH]2)[C@H]1c1ccc(F)cc1)c1cc(C(F)(F)F)cc(C(F)(F)F)c1 [Aprepitant (MK-0869)]
7. O=C(c1cc(Cc2n[nH]c(=O)c3ccccc23)ccc1F)N1CCN(C(=O)C2CC2)CC1
8. Cn1cc(C2=C(c3ccc(Cl)cc3Cl)C(=O)NC2=O)c2ccccc21

stdout:
[0.191, 0.0829, 0.225, -0.00204, 0.0643, -0.0806, 0.0127, -0.00858]

The following molecules each have a reported value; give each one's growth inhibition by drug alone.
1. Nc1nccc(Oc2ccc(NC(=O)c3c[nH]cc(-c4ccc(F)cc4)c3=O)cc2F)c1Cl
2. C[C@]1(c2nc3c(C(N)=O)cccc3[nH]2)CCCN1
3. O=C(CCCCCCC(=O)Nc1ccccc1)NO [Vorinostat (SAHA)]
4. CN(C)c1nc(N(C)C)nc(N(C)C)n1
5. C=CC[C@@H]1/C=C(\C)C[C@H](C)C[C@H](OC)[C@H]2O[C@@](O)(C(=O)C(=O)N3CCCC[C@H]3C(=O)O[C@H](/C(C)=C/[C@@H]3CC[C@@H](O)[C@H](OC)C3)[C@H](C)[C@@H](O)CC1=O)[C@H](C)C[C@@H]2OC
6. Cc1ccc(C(=O)N(CCCN)[C@@H](c2nc3cc(Cl)ccc3c(=O)n2Cc2ccccc2)C(C)C)cc1
7. COc1ccc(-c2ccc3c(N4CCOC[C@@H]4C)nc(N4CCOC[C@@H]4C)nc3n2)cc1CO

stdout:
[-0.0716, -0.0659, -0.0182, -0.0883, 0.267, 0.446, 0.165]

Item CO[C@H]1/C=C\C=C(/C)C(=O)NC2=CC(=O)C(NCCN(C)C)=C(C[C@@H](C)C[C@H](OC)[C@H](O)[C@@H](C)/C=C(\C)[C@@H]1OC(N)=O)C2=O [17-DMAG HCl (Alvespimycin)] ; assay system U-2932; growth inhibition by drug alone reported as 0.163

These entries and their values trace back to the supplement of paper PMC6897291.
